Experiment: Partition coefficient was measured by the shake flask method at pH 7.4.
Type: physicochemical
Settings: octanol/water
measurement.kind: logD
Lab note: jot the number down without any unit.

logD reading for CC(C)c1cccc(C(C)C)c1OC(=O)[N-]S(=O)(=O)Oc1c(C(C)C)cccc1C(C)C.[Na+] : 2.98
